# Test system: lambsquarters (Chenopodium album, CHEAL)
# assay-details: Post-emerge greenhouse herbicide activity screening, phytotoxicity rating
# Assay type: in vivo
# test-settings: 125 g ai/ha, 14 days after application
A collection of compounds and their measured CHEAL phytotoxicity rating (0-100 scale)
endpoint-name: CHEAL phytotoxicity rating (0-100 scale)

INSERT INTO results (compound, system_name, endpoint_name, reported_value) VALUES
  ('COc1ccc(Oc2cc(-n3c(=O)cc(C(F)(F)F)n(C)c3=S)c(F)cc2C#N)cc1', 'lambsquarters (Chenopodium album, CHEAL)', 'CHEAL phytotoxicity rating (0-100 scale)', 100),
  ('Cn1c(C(F)(F)F)cc(=O)n(-c2cc(Oc3ncccc3[N+](=O)[O-])c(Cl)cc2F)c1=S', 'lambsquarters (Chenopodium album, CHEAL)', 'CHEAL phytotoxicity rating (0-100 scale)', 100),
  ('Cn1c(=S)n(C)c(=O)n(-c2cc(Oc3ncccn3)c(Cl)cc2F)c1=O', 'lambsquarters (Chenopodium album, CHEAL)', 'CHEAL phytotoxicity rating (0-100 scale)', 100),
  ('Cn1c(C(F)(F)F)cc(=O)n(-c2cc(Oc3ccccc3C#N)c(Cl)cc2F)c1=S', 'lambsquarters (Chenopodium album, CHEAL)', 'CHEAL phytotoxicity rating (0-100 scale)', 98),
  ('Cn1nc(-c2cc(Oc3ncccn3)c(Cl)cc2F)c(Cl)c1[S+]([O-])C(F)F (stereo not shown)', 'lambsquarters (Chenopodium album, CHEAL)', 'CHEAL phytotoxicity rating (0-100 scale)', 100),
  ('Cn1c(C(F)(F)F)cc(=O)n(-c2cc(Oc3ccccc3)c(C#N)cc2F)c1=S', 'lambsquarters (Chenopodium album, CHEAL)', 'CHEAL phytotoxicity rating (0-100 scale)', 100),
  ('Cn1c(C(F)(F)F)cc(=O)n(-c2cc(Oc3ccccc3[N+](=O)[O-])c(Cl)cc2F)c1=S', 'lambsquarters (Chenopodium album, CHEAL)', 'CHEAL phytotoxicity rating (0-100 scale)', 99);
